# method notes: Rat pharmacokinetics
# experimental context: both, Sprague-Dawley, in vivo, iv, 1 mg/kg
metric name: clearance (L/h/kg)

>>> reading("CCC(CC)n1c(=O)[nH]c2ncc(Cl)nc21")
0.462

a: C#Cc1cnc2nc(O)n(C(CC)CC)c2n1
b: CCC(CC)n1c(=O)[nH]c2ncc(Br)nc21
(Q) Between a and b , whose measured clearance reads higher? Choose, then provide that item's label.
(A) b

---

# target under test: CYP1A2 (Homo sapiens)
# Sequence (P05177 whole entry): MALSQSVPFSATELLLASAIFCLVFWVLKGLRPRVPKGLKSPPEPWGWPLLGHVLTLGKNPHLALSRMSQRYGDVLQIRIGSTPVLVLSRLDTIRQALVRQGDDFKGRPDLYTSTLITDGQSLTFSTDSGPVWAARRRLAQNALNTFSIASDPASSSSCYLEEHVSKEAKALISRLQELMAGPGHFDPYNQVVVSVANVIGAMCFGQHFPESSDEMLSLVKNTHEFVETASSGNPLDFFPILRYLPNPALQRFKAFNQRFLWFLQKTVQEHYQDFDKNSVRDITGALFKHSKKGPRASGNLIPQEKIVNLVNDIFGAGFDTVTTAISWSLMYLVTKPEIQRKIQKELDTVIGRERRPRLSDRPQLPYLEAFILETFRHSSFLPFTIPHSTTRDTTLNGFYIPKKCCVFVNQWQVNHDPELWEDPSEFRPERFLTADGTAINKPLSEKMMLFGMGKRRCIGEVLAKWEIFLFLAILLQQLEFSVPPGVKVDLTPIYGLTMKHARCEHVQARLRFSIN
# method notes: Cytochrome P450 inhibition and time-dependent inhibition
# Type: in vitro ADME
# experimental context: liver microsomes, probe phenacetin
metric name: IC50 shift at 30 min

(Q) What does the data say about its IC50 shift at 30 min? Entry: C#Cc1cnc2nc(O)n(C(CC)CC)c2n1
(A) > 3

---

# method notes: Rat pharmacokinetics
# experimental context: both, Sprague-Dawley, in vivo, iv
metric name: clearance (mL/min/kg)
The reply should contain only the number, in mL/min/kg.

(Q) What does the data say about its clearance? Entry: C#Cc1cnc2nc(O)n(C(CC)CC)c2n1
(A) 2.6
